assay: Dog PK study: zoledronic acid in serum after IV or oral capsule dosing, enteric or non-enteric coated, with or without excess coformer (LC/MS/MS); type: in vivo, Beagle dogs; conditions: beagle, iv, 0.12 mg/kg, Leg 38, 0.12 mg/kg IV, saline solution, 0.25 h, read-out: Average serum concentration of 4 dogs
measured-attribute: concentration at 0.25 h (ng/mL)
Give bare numbers, in ng/mL.

INPUT: Dear colleague, I am looking for the recorded concentration at 0.25 h of the following molecule: O=P(O)(O)C(O)(Cn1ccnc1)P(=O)(O)O
OUTPUT: 711

---

assay: Rat PK study: zoledronic acid in plasma after IV, oral gavage or intraduodenal dosing (LC/MS/MS); assay type: in vivo; conditions: male, Sprague-Dawley, po, 5 mg/kg, read-out: Average plasma concentration of 3 rats
measured-attribute: concentration at 0.5 hour
The answer should read as a number with its unit following.

INPUT: Dear colleague, I am looking for the recorded concentration at 0.5 hour of the following compound: O=P(O)(O)C(O)(Cn1ccnc1)P(=O)(O)O
OUTPUT: 267 ng/mL

---

test: Dog PK study: zoledronic acid in serum after IV or oral capsule dosing, enteric or non-enteric coated, with or without excess coformer (LC/MS/MS); type: in vivo, Beagle dogs; details: beagle, po, Leg 19, 61.3 mg with 322.9 mg DL-lysine monohydrate, gelatin capsule, PO, 0.75 h, read-out: Average serum concentration of 5 dogs
measured-attribute: concentration at 0.75 h (ng/mL)
Give bare numbers, in ng/mL.

INPUT: Dear colleague, I am looking for the recorded concentration at 0.75 h of the following compound: O=P(O)(O)C(O)(Cn1ccnc1)P(=O)(O)O [Zoledronic acid]
OUTPUT: 479

---

Test: Dog PK study: zoledronic acid in serum after IV or oral capsule dosing, enteric or non-enteric coated, with or without excess coformer (LC/MS/MS)
Format: in vivo, Beagle dogs
Conditions: beagle, po, Leg 24, 64.0 mg with 374.8 mg L-lysine HCl, gelatin capsule, PO, 24 h, read-out: Average serum concentration of 5 dogs
Source text: This can be attributed to the fact that both animals have historically been used in the safety evaluation and PK screening studies and are recommended by appropriate regulatory agencies. […] Additional tests included ID administration in rats and administration of enteric coated capsules in dogs. USA. Some animals have surgical catheters (jugular vein and intraduodenum) were implanted to the animals prior to the studies. […]
measured-attribute: concentration at 24 h (ng/mL)
One number for each entry, in ng/mL.

INPUT: Dear colleague, I am looking for the recorded concentration at 24 h of the following compound: O=P(O)(O)C(O)(Cn1ccnc1)P(=O)(O)O
OUTPUT: 0.89

---

assay: Dog PK study: zoledronic acid in serum after IV or oral capsule dosing, enteric or non-enteric coated, with or without excess coformer (LC/MS/MS); assay type: in vivo, Beagle dogs; details: beagle, intravenous, 0.12 mg/kg, Leg 18, 15 min IV infusion 0.12 mg/kg, saline solution, Time 0.4167 hour, read-out: Average serum concentration of 5 dogs
measured-attribute: concentration at 25 min
The answer should read as a number with its unit following.

INPUT: Dear colleague, I am looking for the recorded concentration at 25 min of the following compound: O=P(O)(O)C(O)(Cn1ccnc1)P(=O)(O)O
OUTPUT: 392 ng/mL

---

assay: Dog PK study: zoledronic acid in serum after IV or oral capsule dosing, enteric or non-enteric coated, with or without excess coformer (LC/MS/MS); assay type: in vivo, Beagle dogs; details: beagle, iv, 0.05 mg/kg, zoledronic acid in dog serum, Leg 1, IV 0.05 mg/kg, saline solution, Time 0.25 hour, read-out: Average serum concentration of 5 dogs
measured-attribute: concentration at 0.25 hour
The answer should read as a number with its unit following.

INPUT: Dear colleague, I am looking for the recorded concentration at 0.25 hour of the following compound: O=P(O)(O)C(O)(Cn1ccnc1)P(=O)(O)O
OUTPUT: 179 ng/mL

---

assay: Dog PK study: zoledronic acid in serum after IV or oral capsule dosing, enteric or non-enteric coated, with or without excess coformer (LC/MS/MS); type: in vivo, Beagle dogs; conditions: beagle, po, Leg 19, 61.3 mg with 322.9 mg DL-lysine monohydrate, gelatin capsule, PO, 10 min, read-out: Average serum concentration of 5 dogs
measured-attribute: concentration at 10 min (ng/mL)
Numbers only, in ng/mL.

INPUT: Dear colleague, I am looking for the recorded concentration at 10 min of the following compound: O=P(O)(O)C(O)(Cn1ccnc1)P(=O)(O)O
OUTPUT: 42.7

---

assay: Dog PK study: zoledronic acid in serum after IV or oral capsule dosing, enteric or non-enteric coated, with or without excess coformer (LC/MS/MS); assay type: in vivo, Beagle dogs; settings: beagle, iv, 0.12 mg/kg, Leg 38, 0.12 mg/kg IV, saline solution, 8 h, read-out: Average serum concentration of 4 dogs
measured-attribute: concentration at 8 h (ng/mL)
Answers are plain numbers, in ng/mL.

INPUT: Dear colleague, I am looking for the recorded concentration at 8 h of the following molecule: O=P(O)(O)C(O)(Cn1ccnc1)P(=O)(O)O
OUTPUT: 5.74

---

test: Dog PK study: zoledronic acid in serum after IV or oral capsule dosing, enteric or non-enteric coated, with or without excess coformer (LC/MS/MS); type: in vivo, Beagle dogs; conditions: beagle, po, Leg 19, 61.3 mg with 322.9 mg DL-lysine monohydrate, gelatin capsule, PO, 0.5 h, read-out: Average serum concentration of 5 dogs
measured-attribute: concentration at 0.5 h (ng/mL)
Answers are plain numbers, in ng/mL.

INPUT: Dear colleague, I am looking for the recorded concentration at 0.5 h of the following compound: O=P(O)(O)C(O)(Cn1ccnc1)P(=O)(O)O [Zoledronic acid]
OUTPUT: 659

---

experiment: Dog PK study: zoledronic acid in serum after IV or oral capsule dosing, enteric or non-enteric coated, with or without excess coformer (LC/MS/MS); assay type: in vivo, Beagle dogs; conditions: beagle, po, 56 mg, Leg 7, 56.0 mg, enteric coated capsule, PO, 24 h, read-out: Average serum concentration of 5 dogs
measured-attribute: concentration at 24 h (ng/mL)
One number for each entry, in ng/mL.

INPUT: Dear colleague, I am looking for the recorded concentration at 24 h of the following compound: O=P(O)(O)C(O)(Cn1ccnc1)P(=O)(O)O [Zoledronic acid monohydrate]
OUTPUT: 0.5

---

assay: Dog PK study: zoledronic acid in serum after IV or oral capsule dosing, enteric or non-enteric coated, with or without excess coformer (LC/MS/MS); assay type: in vivo, Beagle dogs; settings: beagle, po, Leg 24, 64.0 mg with 374.8 mg L-lysine HCl, gelatin capsule, PO, 0.5 h, read-out: Average serum concentration of 5 dogs
measured-attribute: concentration at 0.5 h (ng/mL)
Give bare numbers, in ng/mL.

INPUT: Dear colleague, I am looking for the recorded concentration at 0.5 h of the following compound: O=P(O)(O)C(O)(Cn1ccnc1)P(=O)(O)O [Zoledronic acid]
OUTPUT: 172

---

test: Dog PK study: zoledronic acid in serum after IV or oral capsule dosing, enteric or non-enteric coated, with or without excess coformer (LC/MS/MS); type: in vivo, Beagle dogs; conditions: beagle, iv, 0.05 mg/kg, zoledronic acid in dog serum, Leg 1, IV 0.05 mg/kg, saline solution, Time 48 hour, read-out: Average serum concentration of 5 dogs
measured-attribute: concentration at 48 hour

INPUT: Dear colleague, I am looking for the recorded concentration at 48 hour of the following compound: O=P(O)(O)C(O)(Cn1ccnc1)P(=O)(O)O [Zoledronic acid]
OUTPUT: 0 µg/mL

---

test: Rat PK study: zoledronic acid in plasma after IV, oral gavage or intraduodenal dosing (LC/MS/MS); type: in vivo; settings: male, Sprague-Dawley, iv, 0.5 mg/kg, read-out: Average plasma concentration of 3 rats
measured-attribute: concentration at 8 hour (ng/mL)
Give bare numbers, in ng/mL.

INPUT: Dear colleague, I am looking for the recorded concentration at 8 hour of the following compound: O=P(O)(O)C(O)(Cn1ccnc1)P(=O)(O)O
OUTPUT: 10.7

---

Assay: Dog PK study: zoledronic acid in serum after IV or oral capsule dosing, enteric or non-enteric coated, with or without excess coformer (LC/MS/MS)
Format: in vivo, Beagle dogs
Details: beagle, iv, 0.183 mg/kg, Leg 13, 0.183 mg/kg IV, saline solution, 8 h, read-out: Average serum concentration of 5 dogs
Text: This can be attributed to the fact that both animals have historically been used in the safety evaluation and PK screening studies and are recommended by appropriate regulatory agencies. […] Additional tests included ID administration in rats and administration of enteric coated capsules in dogs. USA. Some animals have surgical catheters (jugular vein and intraduodenum) were implanted to the animals prior to the studies. […]
measured-attribute: concentration at 8 h

INPUT: Dear colleague, I am looking for the recorded concentration at 8 h of the following molecule: O=P(O)(O)C(O)(Cn1ccnc1)P(=O)(O)O
OUTPUT: 8.78 ng/mL

Hey, just so you know, these numbers are from patent US9169279B2.
